Listing of entries alongside the reported IC50.
Biological target: Bcl-2 WT (Homo sapiens, UniProt P10415)
Sequence (P10415 whole entry): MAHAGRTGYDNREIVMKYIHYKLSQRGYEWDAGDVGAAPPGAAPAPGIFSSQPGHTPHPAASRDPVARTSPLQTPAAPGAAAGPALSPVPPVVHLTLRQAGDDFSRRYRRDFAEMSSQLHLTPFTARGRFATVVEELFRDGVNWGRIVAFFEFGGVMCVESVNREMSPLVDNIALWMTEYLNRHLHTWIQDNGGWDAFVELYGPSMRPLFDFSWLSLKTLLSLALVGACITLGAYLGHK
Experiment: Bcl-2 WT inhibition, fluorescence polarization (Flu-BIM tracer) binding assay
Settings: FP; 20 nM Bcl2, 5 nM Flu-BIM, 1 h incubation; read-out: Bcl-2 w.t. (FP)
The reply should be a number in nM, with the unit left off.

COMPOUND	IC50 (nM)
CC(C)(O)Cc1ccc(-c2csc(C3=C(CN4CCN(c5ccc(C(=O)NS(=O)(=O)c6ccc(NC[C@H]7CC[C@](C)(O)CC7)c([N+](=O)[O-])c6)c(Oc6cnc7[nH]ccc7c6)c5)CC4)CCC(C)(C)C3)c2)c(F)c1 [Example 73]	23.7

# IC50 lookup, item CC1(C)CCC(CN2CCN(c3ccc(C(=O)NS(=O)(=O)c4ccc(NC[C@H]5COCCO5)c([N+](=O)[O-])c4)c(Oc4cnc5[nH]ccc5c4)c3)CC2)=C(c2cc(-c3ccc(F)cc3F)cs2)C1 [Example 42]
38.7

Query (compound): CC1(C)CCC(CN2CCN(c3ccc(C(=O)NS(=O)(=O)c4ccc(NC[C@H]5COCCO5)c([N+](=O)[O-])c4)c(Oc4cnc5[nH]ccc5c4)c3)CC2)=C(c2cc(-c3ccc(C(F)F)cc3)cs2)C1 [Example 48] ; field requested: IC50
20.2

Dear colleague, I am looking for the recorded IC50 of the following compound: [2H]C([2H])([2H])C(O)(c1cc(F)c(-c2csc(C3=C(CN4CCN(c5ccc(C(=O)NS(=O)(=O)c6ccc(NC[C@H]7CC[C@](C)(O)CC7)c([N+](=O)[O-])c6)c(Oc6cnc7[nH]ccc7c6)c5)CC4)CCC(C)(C)C3)c2)c(F)c1)C([2H])([2H])[2H] [Example 68]
23.2

What IC50 value was documented for this compound, CC1(C)CCC(CN2CCN(c3ccc(C(=O)NS(=O)(=O)c4ccc(NC[C@H]5CC[C@](C)(O)CC5)c([N+](=O)[O-])c4)c(Oc4cnc5[nH]ccc5c4)c3)CC2)=C(c2cc(-c3c(F)cc(C(C)(C)O)cc3F)cs2)C1 [Example 63] ?
16.3

What value of IC50 has been reported for the following compound? CC1(C)CCC(CN2CCN(c3ccc(C(=O)NS(=O)(=O)c4ccc(NC[C@H]5CC[C@](C)(O)CC5)c([N+](=O)[O-])c4)c(Oc4cnc5[nH]ccc5c4)c3)CC2)=C(c2cc(-c3c(F)ccc(F)c3F)cs2)C1 [Example 54]
22.8

Recorded IC50 of CC1(C)CCC(CN2CCN(c3ccc(C(=O)NS(=O)(=O)c4ccc(NC[C@H]5CC[C@](C)(O)CC5)c([N+](=O)[O-])c4)c(Oc4cnc5[nH]ccc5c4)c3)CC2)=C(c2cc(-c3ccc(C(C)(O)C(F)(F)F)cc3F)cs2)C1 (some centres unmarked) [Example 78] , please.
16.8

Dear colleague, I am looking for the recorded IC50 of the following compound: CC(=O)NC(C)(C)c1cc(F)c(-c2csc(C3=C(CN4CCN(c5ccc(C(=O)NS(=O)(=O)c6ccc(NC[C@H]7CC[C@](C)(O)CC7)c([N+](=O)[O-])c6)c(Oc6cnc7[nH]ccc7c6)c5)CC4)CCC(C)(C)C3)c2)c(F)c1 [Example 80]
15.6
